Please respond with reported TGI for every item in the list.
- System: OVCAR-4 ovarian
- PROTOCOL_DETAILS: NCI tumour cell line growth inhibition, 48 h

* C[Si](C)(C)OC1CC(=O)OC1n1cc(F)c(=O)[nH]c1=O (stereo not given) | > 100 µM

Hi, could you look up TGI for each item in my list?
1. COc1ccc(S(=O)(=O)c2ccccc2[N+](=O)[O-])cc1
2. O=C(CC(=O)n1nc(-c2ccccc2)c(N=Nc2ccc(Cl)cc2)c1-c1ccccc1)Nc1ccc(Cl)cc1
3. C=CCCCCC/C=C\[C@@H](O)C#CC#C/C=C/CO
4. COc1cc2cc3c4cc(OC)c(OC)cc4cc[n+]3c(C)c2cc1OC (tested in a mixture with another compound)
5. CN(C)CCNc1ccc(CO)c2oc3ccc(O)cc3c(=O)c12
6. CC(=O)O[C@H]1CCC2[C@@H]3CC[C@]4(C)CC(=O)C=C[C@]4(C)C3CC[C@@]21C (stereo not given in full)

Result:
1. > 100 µM
2. > 100 µM
3. > 100 µM
4. > 100 µM
5. 28.7 µM
6. 31.8 µM

Hi, could you look up TGI for each item in my list?
1. CC/C=C\C[C@H](O)C/C=C1/C(=O)C=C[C@@H]1C/C=C\CCCC(=O)OC
2. COc1cc(OC)c(C(=O)/C=C/c2cccc(C(F)(F)F)c2)c(OC)c1
3. COc1c(C(=O)/C=C/c2ccccc2)c(O)cc2occc12

Result:
["16.2 µM", "8.57 µM", "26.6 µM"]

====

Please respond with reported TGI for every item in the list.
- Test system: MDA-MB-231 breast
- PROTOCOL_DETAILS: NCI tumour cell line growth inhibition, 48 h

These solved cases illustrate the format of a correct answer.
• Nc1nc(Nc2cccnc2)sc1C(=O)c1ccccc1F = > 100 µM
• NC(=O)c1cc(Cl)ccc1NC(=O)/C=C/c1ccccc1 = > 100 µM
• CC(C)=CCC(O)[C@](C)(O)[C@H]1[C@H](O)C[C@@]2(C)[C@@H]3CCc4cc(O)c(OC5OC(CO)C(O)C(O)C5O)cc4C3(C)C(=O)C[C@]12C (stereo not given in full) = > 100 µM
• Nc1ccc(Cc2c(N)[nH]c(=O)[nH]c2=O)cc1 = > 100 µM

Query compound follows.
Q: // returns reported TGI for input COc1ccc(C2=C(Cl)c3cc(OC)c(OC)cc3C2Cl)cc1 (stereo not given)
Result: 36.6 µM

====

- Test system: M14 melanoma
- PROTOCOL_DETAILS: NCI tumour cell line growth inhibition, 48 h
MEASUREMENT_NAME: TGI

* CN=C(SC)N(C)c1nc(=[N+](C)C)ss1 | > 100 µM
* O=C(Nc1ccccc1-c1nc2ccccc2[nH]c1=O)c1ccccc1 | > 100 µM
* COc1ccccc1CNCCCN1C(=O)c2ccc3c4c(ccc(c24)C1=O)C(=O)N(CCCNCCNCCCN)C3=O | 4.49 µM
* COc1cc2[nH]c3c(c2cc1OC)CCN[C@]31CC[C@]2(CC3c4c(cc(OC)c(O)c42)CCN3C)C[C@H]1OC (stereo partly specified) | 29.5 µM
* CC(=O)O[C@H]1CCC2[C@@H]3CC[C@]4(C)CC(=O)C=C[C@]4(C)C3CC[C@@]21C (stereo partly specified) | 34.1 µM

Hi, could you look up TGI for each item in my list?
1. C[Si](C)(C)OC1CC(=O)OC1n1cc(F)c(=O)[nH]c1=O (stereo unspecified)
2. COc1cc2c3c(n(CCCN)c(=O)c2cc1OC)-c1ccc(C#N)cc1C3=O
3. CC12OC(C(=O)C13CC3)C1C(=O)c3ccc4c(ccc5ccccc54)c3C(=O)C12 (stereo unspecified)
4. N#C[C@@H](c1ccccn1)c1ncccc1[N+](=O)[O-]

Result:
1: > 100 µM; 2: 31.6 µM; 3: 95 µM; 4: > 100 µM

Hi, could you look up TGI for each item in my list?
1. C=CCCC1(CC(Sc2ccccc2)P(=O)(c2ccccc2)c2ccccc2)OCCO1 (stereo unspecified)
2. COc1cc(Cc2nccc3cc(OC)c(OC)cc23)c(C(C)=O)cc1OC
3. Cc1ccc2c(c1)CC1(Cc3ccccc3C1=O)C2=O (stereo unspecified)
4. CSc1nnc(SC)nn1

Result:
["> 10 µM", "> 750 µM", "> 100 µM", "28.9 µM"]

Hi, could you look up TGI for each item in my list?
1. O=C(c1cccc2ccccc12)N1CCC(C2CCN(C(=O)c3cccc4ccccc34)CC2)CC1
2. CCOC(=O)CCC(=O)C1c2cccc(O)c2C(=O)c2c(O)cc(C)cc21 (stereo unspecified)
3. O=C(CCc1nc(=S)[nH][nH]1)Nc1ccccc1Cl
4. c1ccc(Sc2ccc(Cc3nc4cc5ccccc5cc4[nH]3)cc2)cc1
5. COc1cc(-c2nc3ccccn3c2/N=C/c2cc(Br)cc(Br)c2O)ccc1O

Result:
1. > 100 µM
2. 2.71 µM
3. > 100 µM
4. > 74.5 µM
5. 38.5 µM

Hi, could you look up TGI for each item in my list?
1. CC(=O)ONC(C(=O)C(C)(C)C)C(=O)C(C)(C)C
2. CC1(C)/C(=C/N=O)N(O)C(C)(C)N1O

Result:
1: > 100 µM; 2: > 100 µM

Hi, could you look up TGI for each item in my list?
1. O=C(c1cccs1)N1CCc2ccccc2C1
2. c1ccc(CNc2nncc3[nH]cnc23)cc1

Result:
["> 100 µM", "> 100 µM"]

Hi, could you look up TGI for each item in my list?
1. CCOC(=O)C(=O)Nc1ccccc1CC
2. N#Cc1[nH]c(=O)n(-c2ccccc2)c1N
3. CN(C)CCNc1ccc(CO)c2oc3ccc(O)cc3c(=O)c12

Result:
> 100 µM
> 10 µM
29.5 µM

Hi, could you look up TGI for each item in my list?
1. CCCN(CCC)C(=O)c1c([N+](=O)[O-])cc(C(F)(F)F)cc1[N+](=O)[O-]
2. Nc1nc(-c2ccccc2)cc(-c2ccc(OCc3ccccc3)cc2O)n1
3. CCCc1c(O)nc(Nc2nc3ccccc3[nH]2)[nH]c1=O
4. Cc1cc(N(CCC#N)CCC#N)ccc1/C=C(\NC(=O)/C=C/c1ccccc1)C(N)=O
5. COC(=O)C1=CS/C(=C2\S[C@@H]3[C@H](S2)[C@H]2C=C[C@@H]3C2)S1
6. CCOC(=O)C1SC(=Nc2ccc(C)c(C)c2)N=C1C (stereo unspecified)

Result:
1: > 100 µM; 2: > 100 µM; 3: > 100 µM; 4: > 100 µM; 5: > 100 µM; 6: > 100 µM

Hi, could you look up TGI for each item in my list?
1. COc1ccc2c3c([nH]c2c1[N+](=O)[O-])C(C)N(C)CC3 (stereo unspecified)
2. COc1cc(OC)c2c(C)cc(=O)oc2c1
3. O=C1c2ccccc2C(=O)C1(O)c1c[nH]c2ccccc12
4. COc1ccc(/C=C/c2c(C(=O)/C=C/c3ccccc3)c(C)nc3ccccc23)cc1
5. CCCCC1Cc2ccccc2-c2nc3ccccc3n21 (stereo unspecified)

Result:
> 100 µM
> 100 µM
> 100 µM
4.44 µM
36.3 µM

====

- Test system: U251 CNS
- PROTOCOL_DETAILS: NCI tumour cell line growth inhibition, 48 h
MEASUREMENT_NAME: TGI

These solved cases illustrate the format of a correct answer.
* O=C1c2ccccc2C(=O)C1(O)c1c[nH]c2ccccc12 | > 100 µM
* CC(C)OC(=O)/C=C/C(=O)O/C=C/[N+](=O)[O-] | > 100 µM
* CC(=O)Oc1ccc2cc(-c3ccccc3OC(C)=O)c(=O)oc2c1 | > 100 µM

Hi, could you look up TGI for each item in my list?
1. Cc1ccc([N+](=O)[O-])c2c(NCCC[N+](C)(C)[O-])c3ccccc3nc12
2. Cc1cc(N(CCC#N)CCC#N)ccc1/C=C(\NC(=O)/C=C/c1ccccc1)C(N)=O
3. COc1cc(/C=C/c2ccc(OC)c(O)c2)cc(OC)c1

Result:
1: 7.32 µM; 2: > 100 µM; 3: 15 µM

Hi, could you look up TGI for each item in my list?
1. COc1ccc(-c2nc3ccccn3c2/C=C/C(=O)c2cc(OC)c(OC)c(OC)c2)cc1OC
2. Cc1cc(C(=O)Nc2ccc3cc(CN4CCOCC4)ccc3n2)c(C)n1-c1ccccc1
3. CCOC(=O)N[C@@H]1C(CC(=O)OC)O[C@H]2OC(C)(C)O[C@H]21 (some centres not stated)
4. COCCCNc1nc(N)c(C#N)c(C#N)c1C#N
5. CCCCCCCCCCCCCCCC(=O)OCC(C[As](=O)(O)O)OC(=O)CCCCCCCCCCCCCCC (configuration not stated)
6. CC1CC2=C(S(=O)(=O)c3ccccc3)CC(S(=O)(=O)c3ccccc3)(S(=O)(=O)c3ccccc3)CC21 (configuration not stated)
7. O=C(c1cccc2ccccc12)N1CCC(C2CCN(C(=O)c3cccc4ccccc34)CC2)CC1

Result:
65.5 µM
> 100 µM
> 100 µM
> 10 µM
> 100 µM
> 100 µM
> 100 µM
